The following compounds are shown together with reported Kd values.
Molecular target: RARα (Homo sapiens)
Construct: made in house; host or cells: E. coli BL21 (DE3)
Sequence (P10276 183-417 limits assumed): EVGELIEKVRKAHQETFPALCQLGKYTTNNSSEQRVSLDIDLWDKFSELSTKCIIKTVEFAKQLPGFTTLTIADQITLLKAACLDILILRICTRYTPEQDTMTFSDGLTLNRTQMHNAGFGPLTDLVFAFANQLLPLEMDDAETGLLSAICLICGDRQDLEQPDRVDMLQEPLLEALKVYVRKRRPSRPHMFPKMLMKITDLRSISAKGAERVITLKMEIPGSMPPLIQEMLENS
Assay: Competition binding assay using Yttrium SPA beads, RARα
Give the quantity in nM, number only.

CC1(C)Cc2ccc(O)cc2-c2cc(/C=C/c3ccc(C(=O)O)cc3)ccc21; 8.3

Short answer for `COc1ccc2c(c1)-c1cc(/C=C/c3ccc(C(=O)O)cc3)ccc1C(C)(C)C2` : Kd was 1.1
